melting point values by entry

compound	melting point
O=C1CSC(c2cccnc2)c2cc(Cl)ccc2N1 (stereo not shown)	224 to 226 °C
CN(C)c1ccc2c(c1)C(c1ccc(F)cc1)SCC(=O)N2 (stereo not shown)	219 to 222 °C
CC(C)c1ccc(C2SCC(=O)Nc3ccc(Cl)cc32)cc1 (stereo not shown)	240 to 243 °C
CC(C)c1ccccc1C1SCC(=O)Nc2ccc(N(C)C)cc21 (stereo not shown)	108 to 112 °C

* * *

Test system: NMDA receptors
Assay: Blockade of NMDA-evoked cytosolic Ca2+ elevation (Fluo-4/AM) in rat cortical neurons
Type: cell-based
Details: rat cortical embryonic neurons, NMDA 10 μM, compounds 1 to 30 μM; read-out: IC50, NMDA-evoked [Ca2+]c elevation
// IC50 lookup, one value per entry
readoutLabel: IC50

compound	recordedMeasurement
O=C1CSC(c2ccc([N+](=O)[O-])cc2)c2cc(Cl)ccc2N1 (stereo not drawn) [compound 14]	> 30 µM
O=C1CSC(c2ccc(F)cc2)c2ccccc2N1 (stereo not drawn) [compound 32]	> 30 µM
O=C1CSC(c2ccccn2)c2cc(Cl)ccc2N1 (stereo not drawn) [compound 17]	> 30 µM
O=C1CSC(c2cccnc2)c2cc(Cl)ccc2N1 (stereo not drawn) [compound 16]	> 30 µM
COc1ccccc1C1SCC(=O)Nc2ccccc21 (stereo not drawn) [compound 33]	> 30 µM
CN(C)c1ccc2c(c1)C(c1ccccc1Cl)SCC(=O)N2 (stereo not drawn) [compound 26]	> 30 µM
O=C1CSC(c2ccncc2)c2cc(Cl)ccc2N1 (stereo not drawn) [compound 15]	> 30 µM
CN(C)c1ccc2c(c1)C(c1ccc(F)cc1)SCC(=O)N2 (stereo not drawn) [compound 28]	> 30 µM
CC(C)c1ccccc1C1SCC(=O)Nc2ccc(N(C)C)cc21 (stereo not drawn) [compound 21]	6.2 µM
O=C1CSC(c2ccncc2Cl)c2cc(Cl)ccc2N1 (stereo not drawn) [compound 18]	28.3 µM
O=C1CSC(c2ccccc2)c2cnccc2N1 (stereo not drawn) [compound 38]	> 30 µM
COc1ccccc1C1SCC(=O)Nc2ccc(N(C)C)cc21 (stereo not drawn) [compound 27]	18.5 µM
